meta.source: ChEMBL document CHEMBL1144019

# Test system: Enterobacter cloacae
# Protocol notes: Antibacterial activity against AmpC producing Enterobacter cloacae SR-4321 by standard serial agar dilution method
# Type: functional
Reported endpoint: MIC (µg/mL)
A number alone suffices; assume µg/mL.

Example molecules with recorded MIC:
Structure smiles: CNCCNc1cc[n+](CC2=C(C(=O)[O-])N3C(=O)[C@@H](NC(=O)/C(=N\O[C@@H](C)C(=O)O)c4nc(N)sc4Cl)[C@H]3SC2)cc1
MIC, µg/mL: 4
--
Structure smiles: C[C@H](O/N=C(\C(=O)N[C@@H]1C(=O)N2C(C(=O)[O-])=C(C[n+]3cccc4c3nc(N)n4CCNCCO)CS[C@H]12)c1nc(N)sc1Cl)C(=O)O
MIC, µg/mL: 2

Field: next molecule
# input Note MIC for the molecule shown: C[C@H](O/N=C(\C(=O)N[C@@H]1C(=O)N2C(C(=O)[O-])=C(C[n+]3cccc4c3nc(N)n4[C@H]3CCNC3)CS[C@H]12)c1nc(N)sc1Cl)C(=O)O
# output 2

* * *

MIC reference
# Test system: Enterobacter cloacae
# Protocol notes: Antibacterial activity against Enterobacter cloacae ATCC 13047 by standard serial agar dilution method
# Assay type: functional
State just the number; it will be interpreted in µg/mL.

Some compounds with known MIC results, for comparison:
Structure smiles: CNCCNc1cc[n+](CC2=C(C(=O)[O-])N3C(=O)[C@@H](NC(=O)/C(=N\O[C@@H](C)C(=O)O)c4nc(N)sc4Cl)[C@H]3SC2)cc1
Unit name: µg/mL
MIC: 0.5

Structure smiles: C[C@H](O/N=C(\C(=O)N[C@@H]1C(=O)N2C(C(=O)[O-])=C(C[n+]3cccc4c3ccn4CCOC(N)=O)CS[C@H]12)c1nc(N)sc1Cl)C(=O)O
Unit name: µg/mL
MIC: 0.25

Structure smiles: C[C@H](O/N=C(\C(=O)N[C@@H]1C(=O)N2C(C(=O)[O-])=C(C[n+]3cccc4c3ccn4CCO)CS[C@H]12)c1nc(N)sc1Cl)C(=O)O
Unit name: µg/mL
MIC: 0.5

Structure smiles: CNCCn1ncc2c1ccc[n+]2CC1=C(C(=O)[O-])N2C(=O)[C@@H](NC(=O)/C(=N\O[C@@H](C)C(=O)O)c3nc(N)sc3Cl)[C@H]2SC1
Unit name: µg/mL
MIC: 1

Structure smiles: C[C@H](O/N=C(\C(=O)N[C@@H]1C(=O)N2C(C(=O)[O-])=C(C[n+]3cccc4c3ccn4CCNC(N)=O)CS[C@H]12)c1nc(N)sc1Cl)C(=O)O
Unit name: µg/mL
MIC: 0.5

# input Return MIC for the following compound: C[C@H](O/N=C(\C(=O)N[C@@H]1C(=O)N2C(C(=O)[O-])=C(C[n+]3cccc4c3nc(N)n4[C@H]3CCNC3)CS[C@H]12)c1nc(N)sc1Cl)C(=O)O
# output 0.5

# input Tell me measured MIC for COC(=O)NCCn1ccc2c1ccc[n+]2CC1=C(C(=O)[O-])N2C(=O)[C@@H](NC(=O)/C(=N\O[C@@H](C)C(=O)O)c3nc(N)sc3Cl)[C@H]2SC1 please.
# output 1

# input State its MIC for this compound: C[C@H](O/N=C(\C(=O)N[C@@H]1C(=O)N2C(C(=O)[O-])=C(C[n+]3cccc4c3ccn4C)CS[C@H]12)c1nc(N)sc1Cl)C(=O)O
# output 0.25

# input Please give measured MIC of the following entry: CNCCCn1ccc2c1ccc[n+]2CC1=C(C(=O)[O-])N2C(=O)[C@@H](NC(=O)/C(=N\O[C@@H](C)C(=O)O)c3nc(N)sc3Cl)[C@H]2SC1
# output 0.5
